Molecular target: T1, recombinant alipidated human ApoE4 (human, UniProt P02649 19-317)
T1 construct: mature; full length recombinant protein made in E. coli or bought; biotinylated for SPR; position 112 is counted on the mature protein, not on the precursor entry; also called recApoE; non-lipidated ApoE4
T1 sequence (P02649 19-317 C130R): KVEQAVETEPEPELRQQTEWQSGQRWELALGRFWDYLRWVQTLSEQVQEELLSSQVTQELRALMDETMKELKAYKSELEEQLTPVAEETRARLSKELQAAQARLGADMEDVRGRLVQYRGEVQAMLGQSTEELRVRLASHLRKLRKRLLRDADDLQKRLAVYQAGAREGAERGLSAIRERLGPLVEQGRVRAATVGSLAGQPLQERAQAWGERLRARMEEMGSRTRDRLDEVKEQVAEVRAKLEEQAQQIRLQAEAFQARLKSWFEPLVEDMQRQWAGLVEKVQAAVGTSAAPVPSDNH
Test: direct ELISA on coated recombinant alipidated ApoE (0.5 ug/ml)
pEC50: −log10 of the molar value.
endpointLabel: pEC50

{"binder": "HJ153 (antibody, V domains shown, murine monoclonal antibody from hybridoma; also called HJ153B (biotinylated)) VH: QVQLQQPGAELVKPGASVKLSCKASGYTFTSYWMHWVKQRPGRGLEWIGEIDPSDGFTYNNQNFKDKSTLTVDRSSGTAYLQLSSLTSEDSAVYYCAGSLGRIGLAYWGHGTLVTVSA VL: QIVLTQSPAIMSASPGEKVTISCSASSSVTYMYWYQQKPGASPKSWIYRTSNLASGVPARFSGSGSGTSYSLTISSMEAEDAATYYCQQFQSYPLTFGAGTKLELKR", "endpointLabel": "pEC50", "measValue": 10.52}
{"binder": "HJ152 (antibody, V domains shown, murine monoclonal antibody from hybridoma; also called HJ152B (biotinylated)) VH: EVKLEESGGGLVQPGGSMKLSCAASGFSFSDAWMDWVRQSPEKGLEWVAEIRNKADNHATFYAESVKGRFTISRDDSKSSVYLQMNSLRAEDSGIYYCLLWDYWGQGTTLTVSS VL: DIVMSQSPSSLAVSAGEKVTMSCKSSQSLLNSRTRKHFLAWYQQKPGQSPKVLIYWASSRESGVPDRFTGSGSGTDFTLTISSVQAEDLAVYYCKQSCNLPWTFGGGTKLEIKR", "endpointLabel": "pEC50", "measValue": 9.46}
{"binder": "HJ1514 (antibody, V domains shown, murine monoclonal antibody from hybridoma) VH: EVNLEESGGGLVQPGGSMKLSCAASGFTFSDAWMDWVRQSPEKGLEWVAEIRNKADNHATYYAESVKGRFTISRNDSKSSVYLQMNSLRTEDTGIYYCVLWDYWGQGTTLTVSS VL: DIVMSQSPSSLAVSAGEKVTMTCKSSQSLLNSRTRKNFLTWYRQKPGQSPKPLIYWASSRESGVPDRFAGSGSGTDFTLTISSVQAEDLAVYYCKQSYNLPWTFGGGTKLEIKR", "endpointLabel": "pEC50", "measValue": 10.40}
{"binder": "HJ151 (antibody, V domains shown, murine monoclonal antibody from hybridoma; also called HJ151B (biotinylated)) VH: QVQLQQSGAELVRPGASVTLSCKASGYTFTDYEMHWVKQTPVHGLEWIGVIDPEKGGTAYNQKFKGKAILTADKSSSTAYMDLRSLTSEDSAVYYCLKDSWGQGTTLTVSS VL: DVLMTQTPLSLPVSLGDQASISCRSSQTIVHSDGNTYLEWYLQKPGQSPKLLIYKVSNRFSGVPDRFSGSGSGTYFTLKISRVEAEDLGVYYCFQGSHVPCTFGGGTKLEIKR", "endpointLabel": "pEC50", "measValue": 9.36}
{"binder": "HJ155 (antibody, V domains shown, murine monoclonal antibody from hybridoma; also called HJ155B (biotinylated)) VH: RVQLQQSGPGLVKPGASVKISCKASGYTFTDYYINWVRQRPGQGLEWIGWIFPGSGITYYNEKFKGKATLTVDRSSSTAYMLLSSLTSEDSAVYFCARYAYGSPFAYWGQGTLVTVSA VL: DVLMTQTPLSLPVSLGDQASISCRSSQSIVHSNGNTYLEWYLQKPGQSPKLLIYKVSNRFSGVPDRFSGSGSGTDFTLKISRVEAEDLGVYYCFQGSHVPYTFGGGTKLEIKR", "endpointLabel": "pEC50", "measValue": 8.96}
